Item-by-item account of 8OG:A repair function score
B1: library; numbered along this chain (parent)
chain: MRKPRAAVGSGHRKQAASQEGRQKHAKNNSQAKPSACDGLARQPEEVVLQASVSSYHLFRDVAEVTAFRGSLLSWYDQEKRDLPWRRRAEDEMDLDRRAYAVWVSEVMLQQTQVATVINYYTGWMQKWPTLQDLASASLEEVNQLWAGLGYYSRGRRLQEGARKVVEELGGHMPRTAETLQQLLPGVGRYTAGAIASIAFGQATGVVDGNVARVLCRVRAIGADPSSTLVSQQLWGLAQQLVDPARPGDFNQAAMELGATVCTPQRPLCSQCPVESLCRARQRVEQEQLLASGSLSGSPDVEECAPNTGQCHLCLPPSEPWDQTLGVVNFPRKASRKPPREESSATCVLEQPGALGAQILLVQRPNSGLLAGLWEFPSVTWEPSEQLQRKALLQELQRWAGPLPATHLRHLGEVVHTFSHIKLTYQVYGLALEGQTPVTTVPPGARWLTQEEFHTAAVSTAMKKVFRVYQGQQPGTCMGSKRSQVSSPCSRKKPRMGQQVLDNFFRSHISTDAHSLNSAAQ

Variants of: B1
test-details: 8OG:A repair function score (normalized; synonymous = 0, nonsense = -1) (normalized log-likelihood score); higher = more repair activity (WT-like);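 further: cells sorted at 72 h after reporter transfection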
condition-context: with 8OG:A DNA repair reporter (GFP) in HEK-293 MUTYH KO cells
parameter: 8OG:A repair function score

mutation-list: L373T
parameter: 8OG:A repair function score
result-number: -0.0654
//
mutation-list: A461I
parameter: 8OG:A repair function score
result-number: -0.152
//
mutation-list: K333V
parameter: 8OG:A repair function score
result-number: -0.0946
//
mutation-list: G293D
parameter: 8OG:A repair function score
result-number: -0.124
//
mutation-list: T346N
parameter: 8OG:A repair function score
result-number: -0.262
//
mutation-list: P402C
parameter: 8OG:A repair function score
result-number: -0.0435
//
mutation-list: W447H
parameter: 8OG:A repair function score
result-number: -0.881
//
mutation-list: S292C
parameter: 8OG:A repair function score
result-number: -0.0199
//
mutation-list: D322L
parameter: 8OG:A repair function score
result-number: -0.0483
//
mutation-list: S153E
parameter: 8OG:A repair function score
result-number: -0.117
//
mutation-list: L315F
parameter: 8OG:A repair function score
result-number: -0.147
//
mutation-list: G148M
parameter: 8OG:A repair function score
result-number: -1.1
//
mutation-list: R156L
parameter: 8OG:A repair function score
result-number: -0.142
//
mutation-list: K333W
parameter: 8OG:A repair function score
result-number: -0.0431
//
mutation-list: L315R
parameter: 8OG:A repair function score
result-number: -0.0162
//
mutation-list: I221M
parameter: 8OG:A repair function score
result-number: -0.523
//
mutation-list: V65Y
parameter: 8OG:A repair function score
result-number: -0.0274
//
mutation-list: R283P
parameter: 8OG:A repair function score
result-number: -0.625
//
mutation-list: Q363M
parameter: 8OG:A repair function score
result-number: -0.284
//
mutation-list: T346F
parameter: 8OG:A repair function score
result-number: -0.247
//
mutation-list: Q282Y
parameter: 8OG:A repair function score
result-number: -0.0373
//
mutation-list: L430I
parameter: 8OG:A repair function score
result-number: -0.29
//
mutation-list: T116P
parameter: 8OG:A repair function score
result-number: -0.326
//
mutation-list: A115L
parameter: 8OG:A repair function score
result-number: -0.0647
//
mutation-list: A36N
parameter: 8OG:A repair function score
result-number: -0.0203
//
mutation-list: H420I
parameter: 8OG:A repair function score
result-number: -0.666
//
mutation-list: G193M
parameter: 8OG:A repair function score
result-number: -0.156
//
mutation-list: Q126H
parameter: 8OG:A repair function score
result-number: -0.0777
//
mutation-list: Q271W
parameter: 8OG:A repair function score
result-number: -0.0164
//
mutation-list: Q323R
parameter: 8OG:A repair function score
result-number: -0.099
//
mutation-list: T112E
parameter: 8OG:A repair function score
result-number: -0.925
//
mutation-list: Q397Y
parameter: 8OG:A repair function score
result-number: -0.0393
//
mutation-list: Q113H
parameter: 8OG:A repair function score
result-number: -0.405
//
mutation-list: P443E
parameter: 8OG:A repair function score
result-number: -0.318
//
mutation-list: Q282S
parameter: 8OG:A repair function score
result-number: -0.0408
//
mutation-list: K390S
parameter: 8OG:A repair function score
result-number: 0.0865
